- protocolNotes: label from the status in PepcDB records
recordedMetric: protein production

These solved cases illustrate the format of a correct answer.
MRIAAALLAIALTGLSGAVWAETSAAIVARKPDLFHPETGLRIDRQRAPVPEDIPPPARKISALWARKLIARGALALDVYGAAQSRYDELDGTWLVPEPRQSLPGAVWLPEVGRGVLDAALQVYLERELERLTGGSKARAIVVFCVADCWMSWNAAQRIAGMGYLQVYWFPLGTDGWRELGWPLEPVEPVPVPVD	failed
SAVPGGMFAPSLAVGAGFGLNMSQLLPFLPQSMVVLLGMVGFFAGMTRAPMTGFVIVMEMTDTSGMIIPLMATALIAASVSRLVSRRALYDGQVRLFLPQWRTQAGQ	failed
MSSVPRFWRNLGSRYNLEGTRCKECGEYFYPPRNVCVNCRRMGELEPFKFKGTGEIVSYTLIHTGAEGFEGQAPYTLAIIKLDEGPRLTSQVVGNTDNIQIGTRVRSVFRKLGEDGERGMIYYGTKFVPVDALEHHHHHH	not failed
MNIQSILSDKIKQAMILAGADQSCDALIRQSGKPQFGDYQANGIMAAAKKLGLNPREFAQKVLDNLQLSDIAEKLEIAGPGFINIFLNPTWLTTEISAALSHK	failed
MHPSLKYMRKDRLPHIFCSGCGNGIVLNCFTNALDKLALKNEDYIAISGIGCSSRVPGYLFCDSLHTTHGRPIAFALGTKVIQNDKKVVVFTGDGDLSAIGGNHFIHGCRRNIDITVICINNNIYGMTGGQCSPTTPHEKKATTAPYGNPENPLDLCELAKAAGATYVARWTTANPIQLANSIKKGMDKKGFSFIEVVSQCPTYYGRFNVSRKPSEMMKNLKESAITVRKAESMEKEELLNKIVVGEFLNIEKPEYVEQLKKLQE	failed

Given the sequence DYSQKLQNLISEQLVGCGFNEILNNSLTAASYYEGSETYKNENLVYLMNPLSNDLNVMRQTLLFGGLESIQHNANRKNADLKFFEFGNCYFYNAEKKNPEKVLAAYAEEYHLGLWVTGKRVSNSWAHPDENSSVYELKAYVLNIFTRLGLNFGNVVFGNLTNDIYSTAISVHTRGGKLLATFGIISKKIQKAFDIDNEVYYAEINWKELM , write its reported protein production. not failed

Given the sequence MEQPYVYAYPQGSGPSGAPTPQAGGVVVDPKYCAPYPIDMAIVRKMMSLTDGNFVITDVNGNLLFKVKEPVFGLHDKRVLLDGSGTPVVTLREKMVSMHDRWQVFRGGSTDQRDLLYTVKRSSMLQLKTKLDVFLGHNKDEKRCDFRVKGSWLERSCVVYAGESDAIVAQMHRKHTVQSVFLGKDNFSVTVYPNVDYAFIASLVVILDDVNREDRAA , write its reported protein production. not failed

Given the sequence MRIECYSWSDVSEQILEQAIALQNSAFEDMKGNFYQVDIPYKLVLAIDDNQVIGHVAVYLRDVYLDSFPETIGILSCVVVAHKYRGKGVAASLIKMAHAILKEHSVNFSILFAVSHAYYLSSGYIPMKNLTRFIENNEKKEFIYDGGMVCELGSQNWNVNILELNGEVV , write its reported protein production. failed

###

- protocolNotes: label from the status in PepcDB records
recordedMetric: protein production

MAIAHTYRRYLDYLRQDRGLAKNSLLVYGPFIRDFLDSHSAGDGSLLPDAFDAVTIRNHLLARSKGRSAEYTRLMAVALRSFCHFLFLRGDTARDLAGSVLEHHHHHH	failed
MAFTESDVYNNEAFFKQYMKRRYRENSPNELIEKPAFFQLIGDVKGKKILDLGCGDAIFGKELLEKDCHSYTGIEGSELMYEKAKKQLENKNGIVHFLNLKDYTYPPATFDLVTSRLALHYIEHLPIIFQNVYETLKTNGTFTFSVQHPVITSSFESLQTSGKRTSWLVDDYFKTGKRVEPWIDQKVIKYHRTTEEYFTLLQQAGFTITNLKEATPNQTYFQSAEEYERRLRIPLFLLFSCRKLEHHHHHH	not failed
MTRPERAPLSASARIEVPFHDVDAMAVCWHGHYLKYFEIGRAALLRAFDYDYPEMRASGYLWPVVEAHLKYIRPATYGQRIEVRATLIEYENRLKIGYEIADCASGQRLTKGHTIQVAVCAATSELQFVSPAVVFEKVERAWADLEHHHHHH	failed
LTVHYDLQLYKINYKTQSPDGNLTIASGLVAMPIHPVGQVGIISYQHGTRFERNDVPSRNNEKNYIYLAAYGNSAGYMTVMPDYLGLGDNELTLHPYVQAETLASSSIDMLFAAKELANRLHYPISDKLYLAGYSEGGFSTIVMFEMLAKEYPDLPVSAVAPGSAPYGWEETMHFVMLEPGPRATAYLAYFFYSLQTYKSYWSGFDEIFAPPYNTLIPELMDGYHAVDEILQALPQDPLLIFQPKFSNGIISKTDRNTEILKINFNHYDFKPTAPLLLVGTKGDRDVPYAGAEMAYHSFRKYSDFVWIKSVSDALDHVQAHPFVLKEQVDFFKQFERQE	not failed
MKSVFHLWRSHMRHLNDMALFVEVARARSFRKAAEALGMPNSTLSRRVSELEKAIGLRLLHRTTRKIELTEAGQLYYERSKRIVDEARLAHEQLGAMLNQPSGVLRVSLPVNLATFYLTPIIGEFARHYPGITFEFDLTPRRVDLVAEPFDVAIRIGKLEDSGLITRLIGRHSRHLYASPGYIEASGEPATPAELAEHECIGMLRSPIWSLHQGINKVDVAVRGRFTLNSVGMIRALAVNHQGIALLPEKIVAEDVAFGRLRRILPEWQGSAVSIFAVTETRLIPAKTQRFIEFLSSRLMEA	failed

Given the sequence MLPLTLIAILSLGIVEGLDPYKGLLFSYYFYSFRKVKESYVVPIVSTITYYIVGILIVEWLNISDNILTRGIMFSLLLVHVLIKLVIGKVLHYPSNMRPKILNVIQWSAINSIIQMNFIILLTLSILSKPSLILLPITVIIVRETTYCLSVKNNKILLKLTEYNFDYFYLITVLLLGIVIILPLL , write its reported protein production. failed

Given the sequence MTIYSPDTINFNGVSGDRYWFDEPFPYTGVADIDERLSGFPVAVFLPHHRPRQETPLVIGLQGMCAPYGWNAFIVPILIEMGIAVALFDPPLSGERSLVRTSTTLVQNEIKPLIDRGIPFDTALFLSIFRTTARDIGKIREFCGDRYGLTDSRLALFGVSMGVLLSAYAFTANSLGDRLLGTIGHADLPSFAKSWGRPFLPDLAASPLGGLAESLLQRLQPDLAPLFNLLRLTKNLKYQDEYAWDCNPMNYIQQVESHRRVRFLIGANDSIVKIKDARACAQKFPDGDCYIVPGMGHGTRQSGVSFVDHVRYFLATQLGDWRG , write its reported protein production. failed

Given the sequence MMTDEARAKLAAIPMLAGYTGPLERLGGLTNLVFRAGDLCLRIPGKGTEEYINRANEAVAAREAAKAGVSPEVLHVDPATGVMVTRYIAGAQTMSPEKFKTRPGSPARAGEAFRKLHGSGAVFPFRFELFAMIDDYLKVLSTKNVTLPAGYHDVVREAGGVRSALAAHPLPLAACHCDPLCENFLDTGERMWIVDWEYSGMNDPLWDLGDLSVEGKFNANQDEELMRAYFGGEARPAERGRVVIYKAMCDLLWTLWGLIQLANDNPVDDFRAYADGRFARCKALMETPEFSRHLAAVRMG , write its reported protein production. not failed

Given the sequence MIKQDVICYEKEDVVKRNNINITGGGEKTVLLAHGFGCDQNMWRFMLPELEKQFTVIVFDYVGSGQSDLESFSTKRYSSLEGYAKDVEEILVALDLVNVSIIGHSVSSIIAGIASTHVGDRISDITMICPSPCFMNFPPDYVGGFERDDLEELINLMDKNYIGWANYLAPLVMGASHSSELIGELSGSFCTTDPIVAKTFAKATFFSDYRSLLEDISTPALIFQSAKDSLASPEVGQYMAENIPNSQLELIQAEGHCLHMTDAGLITPLLIHFIQNNQTRA , write its reported protein production. not failed

Given the sequence MELFTEAWAQAYCRKLNESEAYRKAASTWEGSLALAVRPDPKAGFPKGVAVVLDLWHGACRGAKAVEGEAEADFVIEADLATWQEVLEGRLEPLSALMRGLLELKKGTIAALAPYAQAAQELVKVAREVA , write its reported protein production. not failed

Given the sequence MRAERGPPKQTISLPVALRKDRDMSEIAPQNRRIRPAAIVVLFLTIALTGCLLALGTWQVQRLFWKLDLIERVDVRAHAEPVDAPAASDWPALGNPSDYEYRRVKLTGTLLNDREVQVYTVTDLGPGYWVMTPLRRDDGSSIIVNRGFVPSDRRDPSSRTGGEPTGNVEIVGLMRAPETGGLFLRTNDPANGRWYSRNIPQITQASGLSDVAPFYVDADATPNPGGLPVGGKTMLTFPNNHLSYAVTWYILAAMVVAAGWYVLRNLNAPKSKRDAD , write its reported protein production. failed

Given the sequence MFRSSRRQAAFDFDLLMPETPARRTARAANPDRDVVDAEFVTIKENRVRQPGNDNRGAARRQMVKPSVTIGALGLAFIGWLDRRLSRLSADAYSALVAGLAIFVFVCSGGLSVVVPETSAVAASVNPLAISHVTITPQEAGGMDILLINGIVENNGGNLEEVPALRADLFAAKGQLVASMVIEPPVKEMQPGFSHGFSAKLRHPGGKTPEIKLSFVEAGASAR , write its reported protein production. failed
